Molecular target: human NAMPT enzyme (His-hNAMPT) (Homo sapiens (Human), UniProt P43490)
Sequence (P43490 whole entry): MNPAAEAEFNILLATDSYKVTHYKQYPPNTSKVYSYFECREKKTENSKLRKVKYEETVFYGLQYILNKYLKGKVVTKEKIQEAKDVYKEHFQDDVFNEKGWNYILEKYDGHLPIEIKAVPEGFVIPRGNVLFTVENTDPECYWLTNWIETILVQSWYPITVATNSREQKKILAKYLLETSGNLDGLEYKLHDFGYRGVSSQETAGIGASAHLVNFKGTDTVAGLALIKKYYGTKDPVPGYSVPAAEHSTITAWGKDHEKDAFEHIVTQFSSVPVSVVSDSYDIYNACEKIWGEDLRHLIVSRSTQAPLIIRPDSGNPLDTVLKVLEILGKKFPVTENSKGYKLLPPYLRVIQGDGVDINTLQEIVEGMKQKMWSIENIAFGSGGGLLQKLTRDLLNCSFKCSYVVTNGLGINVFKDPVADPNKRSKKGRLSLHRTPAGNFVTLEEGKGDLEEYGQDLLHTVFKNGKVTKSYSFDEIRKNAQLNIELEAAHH
Experiment: NAMPT enzymatic inhibition assay (fluorescence, NADH product)
Assay type: biochemical
Details: [BPS]; read-out: NAMPT IC50 (μM) [BPS]
Experimental: The compounds were then diluted 20 fold in an intermediate dilution to 5% DMSO and water. […] Fluorescence intensity was measured at an excitation of 340 nm and an emission of 460 nm using a Tecan Infinite M1000 microplate reader. The fluorescence values indicated increase of NADH product. Enzyme activity assay was performed in duplicate at each concentration. The fluorescence data was analyzed and compared. […]
Observation Type: IC50

• CC(C)(C)OC(=O)N1C[C@@H]2[C@@H](CNC(=O)COc3cccnc3)[C@@H]2C1 [Example 233] = > 30 µM
• Nc1ccc(/C=C/C(=O)NCC[C@@H]2[C@H]3CN(C(=O)CC4CCOCC4)C[C@@H]23)cn1 [Example 94] = 0.01 to 0.49 µM
• O=C(NCC[C@@H]1[C@H]2CN(C(=O)c3ccccc3)C[C@@H]12)c1cc2ccncc2o1 [Example 30] = 0.01 to 0.49 µM
• Nc1ccc(/C=C/C(=O)NCC[C@@H]2[C@H]3CN(C(=O)OC4CCOCC4)C[C@@H]23)cn1 [Example 41] = 0.01 to 0.49 µM

Enter reported IC50 observed with human NAMPT enzyme (His-hNAMPT) (Homo sapiens (Human), UniProt P43490) for O=C(NCC[C@@H]1[C@H]2CN(C(=O)CC3CCOCC3)C[C@@H]12)c1cc2ccncc2o1 [Example 99]
0.01 to 0.49 µM

Form entry - test system: human NAMPT enzyme (His-hNAMPT) (Homo sapiens (Human), UniProt P43490); read-out: IC50; compound: O=C(/C=C/c1cccnc1)NCC[C@@H]1[C@H]2CN(S(=O)(=O)c3ccccc3)C[C@@H]12 [Example 23]
0.01 to 0.49 µM
